system-name: Prostaglandin G/H synthase 2 (Homo sapiens)
procedure-summary: Inhibition of human recombinant COX-2 assessed as reduction in PGF2alpha formation using arachidonic acid as substrate preincubated with enzyme for 10 mins followed by substrate addition for 30 secs and measured after 1 hr by microplate reader based enzyme immunoassay
observation-type: IC50

Known IC50 results, listed for orientation:
| compound | IC50 |
| --- | --- |
| N#Cc1cnn(-c2ccc(S(N)(=O)=O)cc2)c1/N=C/c1ccccc1 | 83 nM |
| CC(=O)Nc1c(C#N)cnn1-c1ccc(S(=O)(=O)NC(C)=O)cc1 | 61.2 nM |
| CC(Cl)C(=O)Nc1c(C#N)cnn1-c1ccc(S(N)(=O)=O)cc1 (stereo not given) | 108 nM |

GET /values?item= N#Cc1cnn(-c2ccc(S(N)(=O)=O)cc2)c1/N=C/c1ccc(Br)cc1 &system= Prostaglandin G/H synthase 2 (Homo sapiens) returns IC50: 64.9 nM

GET /values?item= N#Cc1cnn(-c2ccc(S(N)(=O)=O)cc2)c1NC(=O)CCCl &system= Prostaglandin G/H synthase 2 (Homo sapiens) returns IC50: 58 nM

###

system-name: Prostaglandin G/H synthase 1 (Homo sapiens, UniProt P23219)
Sequence (P23219 whole entry): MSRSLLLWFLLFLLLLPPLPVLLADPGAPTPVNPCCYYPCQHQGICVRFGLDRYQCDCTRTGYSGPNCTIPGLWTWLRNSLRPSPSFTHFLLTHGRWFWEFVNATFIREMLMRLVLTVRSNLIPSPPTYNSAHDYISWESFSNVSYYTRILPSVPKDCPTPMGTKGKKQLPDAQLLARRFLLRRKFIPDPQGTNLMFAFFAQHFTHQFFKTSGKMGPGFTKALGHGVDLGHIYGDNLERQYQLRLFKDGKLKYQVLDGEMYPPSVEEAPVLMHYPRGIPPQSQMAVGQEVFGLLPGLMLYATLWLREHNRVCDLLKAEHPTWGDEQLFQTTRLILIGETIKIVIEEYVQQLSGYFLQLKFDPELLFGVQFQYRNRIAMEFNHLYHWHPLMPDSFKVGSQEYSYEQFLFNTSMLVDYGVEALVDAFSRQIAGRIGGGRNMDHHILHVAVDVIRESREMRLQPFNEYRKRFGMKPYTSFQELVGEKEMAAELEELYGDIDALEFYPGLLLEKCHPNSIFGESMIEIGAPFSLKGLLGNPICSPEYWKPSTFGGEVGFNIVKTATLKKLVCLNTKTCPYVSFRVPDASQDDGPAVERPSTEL
procedure-summary: Inhibition of human recombinant COX1 assessed as reduction in PGF2alpha formation using arachidonic acid as substrate preincubated with enzyme for 10 mins followed by substrate addition for 30 secs and measured after 1 hr by microplate reader based enzyme immunoassay
observation-type: pIC50
// returns pIC50 (minus log10 of molar concentration), number only

| compound | system-name | observation-type | quantitative-result |
| --- | --- | --- | --- |
| N#Cc1cnn(-c2ccc(S(N)(=O)=O)cc2)c1NC(=O)c1ccccc1 | Prostaglandin G/H synthase 1 (Homo sapiens, UniProt P23219) | pIC50 | 7.14 |

pIC50 recorded for this compound, N#Cc1cnn(-c2ccc(S(N)(=O)=O)cc2)c1/N=C/c1ccc(F)cc1 , is 6.17

###

Species on record: Homo sapiens
procedure-summary: Selectivity index, ratio of IC50 for human recombinant COX1 to IC50 for human recombinant COX-2 assessed as reduction in PGF2alpha formation using arachidonic acid as substrate preincubated with enzyme for 10 mins followed by substrate addition for 30 secs and measured after 1 hr by microplate reader based enzyme immunoassay
Labelling: Ratio IC50 reported below 2 becomes 1 (yes); at or above becomes 0 (no).

Check out these entries, answers already filled in.
| molecule | class-assignment |
| --- | --- |
| COc1ccc(/C=N/c2c(C#N)cnn2-c2ccc(S(N)(=O)=O)cc2)cc1 | 0 (no) |
| N#Cc1cnn(-c2ccc(S(N)(=O)=O)cc2)c1/N=C/c1ccc(Br)cc1 | 1 (yes) |
| COc1ccc(/C=N/c2c(C#N)cnn2-c2ccc(S(N)(=O)=O)cc2)cc1OC | 0 (no) |
| CC(C(=O)Nc1c(C#N)cnn1-c1ccc(S(N)(=O)=O)cc1)N1CCOCC1 (centres undefined) | 1 (yes) |
| N#Cc1cnn(-c2ccc(S(N)(=O)=O)cc2)c1/N=C/c1ccc(Cl)cc1 | 1 (yes) |

Threshold test, Ratio IC50 < 2: N#Cc1cnn(-c2ccc(S(N)(=O)=O)cc2)c1NC(=O)CN1CCOCC1
1 (yes)

Threshold test, Ratio IC50 < 2: N#Cc1cnn(-c2ccc(S(N)(=O)=O)cc2)c1NC(=O)CCl
0 (no)

Threshold test, Ratio IC50 < 2: N#Cc1cnn(-c2ccc(S(N)(=O)=O)cc2)c1NC(=O)c1ccccc1
1 (yes)

Threshold test, Ratio IC50 < 2: CC(Cl)C(=O)Nc1c(C#N)cnn1-c1ccc(S(N)(=O)=O)cc1 (centres undefined)
0 (no)

Threshold test, Ratio IC50 < 2: N#Cc1cnn(-c2ccc(S(N)(=O)=O)cc2)c1NC(=O)CCN1CCOCC1
0 (no)

Threshold test, Ratio IC50 < 2: N#Cc1cnn(-c2ccc(S(N)(=O)=O)cc2)c1/N=C/c1ccc(F)cc1
0 (no)

Threshold test, Ratio IC50 < 2: N#Cc1cnn(-c2ccc(S(N)(=O)=O)cc2)c1/N=C/c1ccccc1
0 (no)

Threshold test, Ratio IC50 < 2: N#Cc1cnn(-c2ccc(S(N)(=O)=O)cc2)c1NC(=O)CCCl
0 (no)

Threshold test, Ratio IC50 < 2: CC(=O)Nc1c(C#N)cnn1-c1ccc(S(=O)(=O)NC(C)=O)cc1
0 (no)

###

This listing pairs compounds with measured inhibition in vivo at 10 µmol/kg.
System: Rattus norvegicus
procedure-summary: Anti-inflammatory activity against carrageenan-induced albino rat paw edema model assessed as inhibition of carrageenan-induced right hind paw edema at 10 umol/kg, sc treated 1 hr prior to carrageenan challenge and measured at 3 hrs after carrageenan treatment by plethysmometer relative to control
Format: functional
Output should be the measured figure followed by the unit it is expressed in.

Known inhibition in vivo at 10 µmol/kg results, listed for orientation:
| input-smiles | system-name | inhibition in vivo at 10 µmol/kg |
| --- | --- | --- |
| Cc1ccc(-c2cc(C(F)(F)F)nn2-c2ccc(S(N)(=O)=O)cc2)cc1 | Rattus norvegicus | 35% |
| N#Cc1cnn(-c2ccc(S(N)(=O)=O)cc2)c1/N=C/c1ccc(F)cc1 | Rattus norvegicus | 36.7% |
| N#Cc1cnn(-c2ccc(S(N)(=O)=O)cc2)c1NC(=O)CCN1CCOCC1 | Rattus norvegicus | 39.5% |
| N#Cc1cnn(-c2ccc(S(N)(=O)=O)cc2)c1NC(=O)CCl | Rattus norvegicus | 40.1% |
| COc1ccc(/C=N/c2c(C#N)cnn2-c2ccc(S(N)(=O)=O)cc2)cc1 | Rattus norvegicus | 33.6% |

inhibition in vivo at 10 µmol/kg recorded for this compound, CC(=O)Nc1c(C#N)cnn1-c1ccc(S(=O)(=O)NC(C)=O)cc1 , is 35%

###

This listing pairs compounds with measured IC50.
system-name: Prostaglandin G/H synthase 2 (Homo sapiens)
procedure-summary: Inhibition of human recombinant COX-2 assessed as reduction in PGF2alpha formation using arachidonic acid as substrate preincubated with enzyme for 10 mins followed by substrate addition for 30 secs and measured after 1 hr by microplate reader based enzyme immunoassay
Record the value in nM, omitting the unit from your answer.

Known IC50 results, listed for orientation:
| compound | IC50 / nM |
| --- | --- |
| COc1ccc(/C=N/c2c(C#N)cnn2-c2ccc(S(N)(=O)=O)cc2)cc1OC | 43.7 |
| N#Cc1cnn(-c2ccc(S(N)(=O)=O)cc2)c1/N=C/c1ccc(F)cc1 | 38.7 |
| N#Cc1cnn(-c2ccc(S(N)(=O)=O)cc2)c1NC(=O)CCl | 19.9 |

# input for lookup
IC50 recorded for this compound, CC(C(=O)Nc1c(C#N)cnn1-c1ccc(S(N)(=O)=O)cc1)N1CCOCC1 (centres undefined) , is 123

###

procedure-summary: Toxicity in carrageenan-induced albino rat paw edema model assessed as Inhibition of cytosolic PGE2 synthase expression in plasma at 10 umol/kg, sc treated 1 hr prior to carrageenan challenge measured after 2 hrs by microplate reader based monoclonal sandwich ELISA assay
Assay type: organism-based
assay-setup: in vivo
Hi, to clarify the labels: TRUE covers inhibition (INH) from 40% upward, FALSE covers anything below 40%.

Check out these entries, answers already filled in.
| molecule | class-assignment |
| --- | --- |
| N#Cc1cnn(-c2ccc(S(N)(=O)=O)cc2)c1NC(=O)CCN1CCOCC1 | TRUE |
| Cc1ccc(-c2cc(C(F)(F)F)nn2-c2ccc(S(N)(=O)=O)cc2)cc1 [CELECOXIB] | TRUE |
| CC(=O)Nc1c(C#N)cnn1-c1ccc(S(=O)(=O)NC(C)=O)cc1 | FALSE |
| COc1ccc(/C=N/c2c(C#N)cnn2-c2ccc(S(N)(=O)=O)cc2)cc1 | TRUE |
| N#Cc1cnn(-c2ccc(S(N)(=O)=O)cc2)c1NC(=O)CCl | FALSE |

Read the next record carefully.
inhibition (INH) >= 40% for N#Cc1cnn(-c2ccc(S(N)(=O)=O)cc2)c1/N=C/c1ccc(F)cc1 ?
TRUE

###

system-name: Prostaglandin G/H synthase 2 (Homo sapiens)
Sequence (P35354 whole entry): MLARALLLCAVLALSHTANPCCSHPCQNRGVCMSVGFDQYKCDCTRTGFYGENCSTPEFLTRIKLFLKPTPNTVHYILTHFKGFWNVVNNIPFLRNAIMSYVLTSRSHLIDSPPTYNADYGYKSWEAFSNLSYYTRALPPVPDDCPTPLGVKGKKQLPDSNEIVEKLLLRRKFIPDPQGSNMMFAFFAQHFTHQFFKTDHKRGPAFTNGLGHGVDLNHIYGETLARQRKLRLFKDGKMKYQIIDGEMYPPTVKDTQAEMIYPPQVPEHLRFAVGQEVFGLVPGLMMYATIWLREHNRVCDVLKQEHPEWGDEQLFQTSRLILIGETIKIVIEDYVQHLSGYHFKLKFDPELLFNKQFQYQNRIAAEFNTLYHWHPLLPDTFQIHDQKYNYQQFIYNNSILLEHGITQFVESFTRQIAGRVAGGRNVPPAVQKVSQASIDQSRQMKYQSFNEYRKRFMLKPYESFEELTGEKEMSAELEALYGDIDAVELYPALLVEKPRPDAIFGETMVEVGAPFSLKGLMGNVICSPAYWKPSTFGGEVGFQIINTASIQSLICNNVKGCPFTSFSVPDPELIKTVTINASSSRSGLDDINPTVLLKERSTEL
procedure-summary: Inhibition of human recombinant COX-2 assessed as reduction in PGF2alpha formation using arachidonic acid as substrate preincubated with enzyme for 10 mins followed by substrate addition for 30 secs and measured after 1 hr by microplate reader based enzyme immunoassay
This listing pairs molecules with measured pIC50.
// returns pIC50 (minus log10 of molar concentration), number only

| input-smiles | observation-type | quantitative-result |
| --- | --- | --- |
| N#Cc1cnn(-c2ccc(S(N)(=O)=O)cc2)c1/N=C/c1ccc(Cl)cc1 | pIC50 | 6.72 |
| N#Cc1cnn(-c2ccc(S(N)(=O)=O)cc2)c1NC(=O)CN1CCOCC1 | pIC50 | 7.47 |
| COc1ccc(/C=N/c2c(C#N)cnn2-c2ccc(S(N)(=O)=O)cc2)cc1 | pIC50 | 7.41 |
| N#Cc1cnn(-c2ccc(S(N)(=O)=O)cc2)c1NC(=O)CCN1CCOCC1 | pIC50 | 7.40 |

# input for lookup
pIC50 recorded for this molecule, N#Cc1cnn(-c2ccc(S(N)(=O)=O)cc2)c1NC(=O)c1ccccc1 , is 7.25

Origin of measurements: ChEMBL document CHEMBL4393660
